Consider the following molecules and their measured DC50 readings.
- System Tested: ER (Homo sapiens, UniProt P03372)
- Construct: host or cells: T47D and MCF7 human breast cancer cells
- Experiment Notes: ER degradation activity, in-cell western blot analysis in T47D cells
- Format: cell-based
- Test Conditions: compounds 16 hours, Table A does not say whether T47D or MCF7, read-out: Potency (DC50)
- Protocol: ER degradation activity was evaluated in the human breast cancer cell line T47D and MCF7 purchased from the American Type Culture Collection (ATCC), Manassas, VA, and maintained and cultured in Dulbecco's Modified Eagle's medium (DMEM) containing 10% fetal bovine serum, 1 unit/ml of penicillin and 1 μg/ml of streptomycin. […]

C[C@@H]1Cc2cc(O)ccc2[C@@H](c2c(F)cc(C(=O)N3CC4(CCN(C(=O)CN5Cc6cc7c(cc6C5)C(=O)N(C5CCC(=O)NC5=O)C7=O)CC4)C3)cc2F)N1CC(F)F (some centres unmarked) = 10 to 100 nM
C[C@@H]1Cc2cc(O)ccc2[C@@H](c2c(F)cc(OCC3CCC4(CC3)CN(C(=O)CN3Cc5cc6c(cc5C3)C(=O)N(C3CCC(=O)NC3=O)C6=O)C4)cc2F)N1CC(F)F (some centres unmarked) = < 10 nM
C[C@@H]1Cc2c([nH]c3ccccc23)[C@@H](c2ccc(C3CCC4(CC3)CCN(C(=O)CN3Cc5cc6c(cc5C3)C(=O)N(C3CCC(=O)NC3=O)C6=O)CC4)cc2F)N1CC(F)F (some centres unmarked) = > 100 nM
O=C1CCC(N2C(=O)c3cc4c(cc3C2=O)CN(CC(=O)N2CC3(CCN(c5ccc([C@H]6c7ccc(O)cc7CC[C@H]6c6ccccc6)cc5)CC3)C2)C4)C(=O)N1 (some centres unmarked) = > 100 nM
O=C1CCC(N2C(=O)c3cc4c(cc3C2=O)CN(CC2COC3(CCN(c5ccc([C@@H]6c7ccc(O)cc7CC[C@@H]6c6ccccc6)cc5)CC3)C2)C4)C(=O)N1 (some centres unmarked) = 10 to 100 nM

IN: Tell me reported DC50 for C[C@@H]1Cc2c([nH]c3ccccc23)[C@@H](c2ccc(C3=CCC4(CC3)CCN(C(=O)CN3Cc5cc6c(cc5C3)C(=O)N(C3CCC(=O)NC3=O)C6=O)CC4)cc2)N1CC(F)F (some centres unmarked) , tested with ER (Homo sapiens, UniProt P03372).
OUT: > 100 nM

IN: Tell me reported DC50 for O=C1CCC(N2C(=O)c3cc4c(cc3C2=O)CN(CC(=O)N2CCC3(CC2)CCN(c2ccc([C@@H]5c6ccc(O)cc6OC[C@@H]5c5ccccc5)cc2)CC3)C4)C(=O)N1 (mixture of isomers) , tested with ER (Homo sapiens, UniProt P03372).
OUT: > 100 nM

IN: Tell me reported DC50 for C[C@@H]1Cc2c([nH]c3ccccc23)[C@@H](c2ncc(C3=CCC(C(=O)N4CCC(N5Cc6cc7c(cc6C5)C(=O)N(C5CCC(=O)NC5=O)C7=O)CC4)CC3)cc2F)N1CC(C)(F)F (some centres unmarked) , tested with ER (Homo sapiens, UniProt P03372).
OUT: > 100 nM

IN: Tell me reported DC50 for O=C1CCC(N2Cc3cc4c(cc3C2=O)C(=O)N(C2CCN(CC3CCN(c5ccc([C@@H]6c7ccc(O)cc7CC[C@@H]6c6ccccc6)cc5)CC3)CC2)C4)C(=O)N1 (some centres unmarked) , tested with ER (Homo sapiens, UniProt P03372).
OUT: > 100 nM
